Ref: PubChem BioAssay

EXPERIMENTAL_DETAILS: basal 3T3-L1 adipocyte mitochondrial potential changes, profiling panel, cell-based, JC-1 fluorescence, 3T3-L1 adipocytes, 24 h, 100 nL compound (AID 1168); further: test concentration not given here
SETTINGS: JC-1 mitochondrial fluorescence, higher = more signal, called active from +8 up or from −8 down
Assign z-score to each entry below.
Numbers only.

[[record]]
smiles_input = "COc1ccc([Si](C)(C)[C@H]2[C@H](CCn3cc([C@H](O)c4ccccc4)nn3)O[C@@]3(C(=O)N(Cc4cccc(N5CCOC5=O)c4)c4ccccc43)[C@@H]2C)cc1"
quantitative_result = -0.537

[[record]]
smiles_input = "CN(C)C(=O)[C@@]1(Cc2ccccc2CN=[N+]=[N-])N=C(c2ccc(OCCCO)cc2)O[C@H]1c1ccccc1"
quantitative_result = -0.215


q: What does the data say about its z-score? Entry: COCCCN1C(=O)[C@@]2(c3ccc([N+](=O)[O-])cc3)CC(=O)N(C3CCCCC3)[C@@H]2c2ccc(CO)cc21
a: 0.939

====

SYSTEM_TESTED: Homeobox protein Hox-A13 (Mus musculus)
EXPERIMENTAL_DETAILS: inhibitors of HoxA13-DNA binding, primary screen, biochemical, fluorescence polarization, labeled oligonucleotide (AID 1185)
SETTINGS: 15 min, higher = more signal, called active from +8 up or from −8 down
MEASURED_QUANTITY: z-score
Answers are plain numbers.

Solved entries (count: 4):
[[record]]
compound = "C=C(CCCC)C(=O)CC[C@H](OC(C)=O)c1cccc(OCCO)c1"
quantitative_result = -5.04

[[record]]
compound = "COc1ccc([Si](C)(C)[C@H]2[C@H](CCO)O[C@@]3(C(=O)N(C)c4c(Br)cc(C)cc43)[C@@H]2C)cc1"
quantitative_result = -5.78

[[record]]
compound = "COCCCN1C(=O)[C@@]2(c3ccc([N+](=O)[O-])cc3)CC(=O)N(C3CCCCC3)[C@@H]2c2ccc(CO)cc21"
quantitative_result = -0.329

[[record]]
compound = "CN(C)CCCC[C@@H]1NC(=O)[C@H]2C[C@@H](C(=O)NCCCCCNC(=O)CS)[C@@H](c3cccc(OCCO)c3)N2C1=O"
quantitative_result = -3.25


For the next question, use this compound.
q: Which z-score value is on record for O=C1C2C=CC(C(O)C3CCCCC3)N(Nc3ccc([N+](=O)[O-])cc3)C2C(=O)N1c1ccccc1 (stereo not given) ?
a: -2.33

====

System: Lefty1
EXPERIMENTAL_DETAILS: Lefty1 binders on small-molecule microarrays, primary screen, biochemical, small-molecule microarray, 635/667 nm fluorescence (AID 1139)
SETTINGS: small-molecule microarray binding, fluorescence 635/667; higher = more signal
MEASURED_QUANTITY: composite z-score
One number for each entry.

Reference set (4 entries):
[[record]]
compound = "O=C1OCCC/C=C\\[C@H]2OC34C=CCN(Cn5nnc6ccccc65)C(=O)[C@H]3N(CCO)C(=O)[C@@H]4C12 (some centres not stated)"
system_tested = "Lefty1"
quantitative_result = -0.368

[[record]]
compound = "CC(C)c1ccc(NN2C(C(O)C(c3ccccc3)c3ccccc3)C=CC3C(=O)N(c4ccccc4)C(=O)C32)cc1 (configuration not stated)"
system_tested = "Lefty1"
quantitative_result = 0.343

[[record]]
compound = "C=CCNC(=O)[C@H]1[C@@H]2C(=O)O[C@@H](c3ccccc3)[C@@H](c3ccccc3)N2[C@@H](c2ccc(OCCO)cc2)[C@]12C(=O)Nc1ccc(C#CC3=CCCCC3)cc12"
system_tested = "Lefty1"
quantitative_result = 0.937

[[record]]
compound = "CCOC(=O)[C@H]1C/C=C/C[C@H](C(=O)OCC)C(=O)O[C@H]2[C@@H](OC)O[C@H](CO)[C@@H](OC(=O)Nc3cccc(F)c3)[C@@H]2OC1=O"
system_tested = "Lefty1"
quantitative_result = 1.11


// for each compound in input: emit composite z-score
1. COc1ccc(COC2OC[C@]3(C)[C@H]4C5=C(CN3C(=O)OC(C)(C)C)[C@H](C)C(CO)C(CO)C5CC[C@@H]24)cc1 (some centres not stated)
2. CCOC(=O)C[C@H]1[C@H](OC(=O)c2ccc(C(=O)c3ccccc3)cc2)[C@@H](NC(=O)c2ccc(-c3ccccc3)cc2)c2cc(OCCCO)ccc2N1C(=O)c1ccccc1
3. C=CCC(OC(C)=O)[C@@H]1[C@@H](N(Cc2ccc(-c3ccccc3)cc2)C(=O)Cc2ccc(F)cc2)c2cc(OCCCO)ccc2N1C(=O)c1ccc(-c2ccccc2)cc1 (some centres not stated)
4. O=C1c2ccccc2[C@@]2(Cc3ccccc3N(CC(F)(F)F)C2=O)[C@H](c2ccc(CO)cc2)N1Cc1ccccc1Cl
5. C=CCNC(=O)[C@H]1[C@@H]2C(=O)O[C@@H](c3ccccc3)[C@@H](c3ccccc3)N2[C@@H](c2ccc(O)cc2)[C@]12C(=O)N(C(=O)OCCOC)c1ccc(C#CCNC(N)=O)cc12
6. CCCCCC1=C2CNC(CCC)(C(=O)OC)C=C2C(C)C1=O (configuration not stated)
7. CC(C)(C)C(=O)N[C@@H](c1ccc(Cl)cc1)[C@]1(C)C[C@H]1C1CCCCC1
8. O=C1O[C@H](c2ccccc2)[C@H](c2ccccc2)N2[C@H]1[C@@H](C(=O)Nc1nc3ccccc3s1)[C@]1(C(=O)Nc3ccc(C#CC4(O)CCCCCC4)cc31)[C@H]2c1ccc(OCCO)cc1

a:
1. -0.209
2. 0.712
3. -0.0123
4. 0.667
5. 0.713
6. -0.444
7. -0.775
8. 1.05
